- measurementProtocol: Thermodynamic solubility in 0.001N HCl by HPLC analysis
- Type: physicochemical
- conditionNotes: 0.001N HCl; read-out: Therm_solubility
readoutType: solubility thermodynamic (µg/mL)

Consider the worked cases shown below.
molecule	readoutType	unitsLabel	reportedMeasurement
CCC(C)n1ncn(-c2ccc(N3CCN(c4ccc(OC[C@@H]5CO[C@@](Cn6cncn6)(c6ccc(Cl)cc6Cl)O5)cc4)CC3)cn2)c1=O (stereo partly specified)	solubility thermodynamic	µg/mL	0.496
CCC(C)n1ncn(-c2ccc(N3CCN(c4ccc(OC[C@@H]5CO[C@@](Cn6ccnc6)(c6ccc(Cl)cc6Cl)O5)cc4)CC3)nc2)c1=O (stereo partly specified)	solubility thermodynamic	µg/mL	7.99
CCC(C)n1ncn(-c2ccc(N3CCN(c4ccc(OC[C@@H]5CO[C@@](Cn6ccnc6)(c6ccc(Cl)cc6Cl)O5)cc4)CC3)cn2)c1=O (stereo partly specified)	solubility thermodynamic	µg/mL	41.3
CCC(C)n1ncn(-c2ccc(N3CCN(c4ccc(OC[C@@H]5CO[C@@](Cn6cncn6)(c6ccc(Cl)cc6Cl)O5)cc4)CC3)c(F)c2)c1=O (stereo partly specified)	solubility thermodynamic	µg/mL	0.0291

(I) CCC(C)n1ncn(-c2ccc(N3CCN(c4ccc(OC[C@@H]5CO[C@@](Cn6cncn6)(c6ccc(Cl)cc6Cl)O5)cn4)CC3)cc2)c1=O (stereo partly specified)
(II) CCC(C)n1ncn(-c2ccc(N3CCN(c4ccc(OC[C@@H]5CO[C@@](Cn6ccnc6)(c6ccc(Cl)cc6Cl)O5)nc4)CC3)cc2)c1=O (stereo partly specified)
Problem: When their solubility thermodynamic values are compared, which is larger, I or II ? Identify your selection by its label.
Solution: II
(II: 6.48 µg/mL, I: 0.114 µg/mL)

* * *

- testTarget: Cytochrome P450 3A4 (Homo sapiens, UniProt P08684)
- Sequence (P08684 whole entry): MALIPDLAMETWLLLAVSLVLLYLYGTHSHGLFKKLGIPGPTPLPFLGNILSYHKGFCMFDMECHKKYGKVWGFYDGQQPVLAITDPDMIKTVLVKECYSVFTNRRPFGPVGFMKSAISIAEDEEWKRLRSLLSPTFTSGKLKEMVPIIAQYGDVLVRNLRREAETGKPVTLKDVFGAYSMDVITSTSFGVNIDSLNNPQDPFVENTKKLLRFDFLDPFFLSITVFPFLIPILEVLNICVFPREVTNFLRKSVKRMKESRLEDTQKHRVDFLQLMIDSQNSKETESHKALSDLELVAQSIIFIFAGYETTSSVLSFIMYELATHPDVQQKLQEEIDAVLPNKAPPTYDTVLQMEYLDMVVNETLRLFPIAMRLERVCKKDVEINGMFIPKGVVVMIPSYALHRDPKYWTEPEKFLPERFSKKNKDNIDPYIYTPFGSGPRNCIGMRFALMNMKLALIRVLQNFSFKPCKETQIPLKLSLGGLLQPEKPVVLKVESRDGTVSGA
readoutType: IC50

Problem: Please respond with reported IC50 (system Cytochrome P450 3A4 (Homo sapiens, UniProt P08684)) for CCC(C)n1ncn(-c2ccc(N3CCN(c4ccc(OC[C@@H]5CO[C@@](Cn6cnnn6)(c6ccc(Cl)cc6Cl)O5)cc4)CC3)c(F)c2)c1=O (stereo partly specified) .
Solution: > 90 µM

* * *

- measurementProtocol: Thermodynamic solubility in 0.001N HCl by HPLC analysis
- Format: physicochemical
- conditionNotes: 0.001N HCl; read-out: Therm_solubility
readoutType: solubility thermodynamic (µg/mL)

compound	reportedMeasurement
CCC(C)n1ncn(-c2ccc(N3CCN(c4ccc(OC[C@@H]5CO[C@@](Cn6cnnn6)(c6ccc(Cl)cc6Cl)O5)cn4)CC3)c(F)c2)c1=O (stereo partly specified)	0.708
CCC(C)n1ncn(-c2ccc(N3CCN(c4ccc(OC[C@@H]5CO[C@@](Cn6ccnc6)(c6ccc(Cl)cc6Cl)O5)cn4)CC3)cc2)c1=O (stereo partly specified)	2.94

(a) CCC(C)n1ncn(-c2ccc(N3CCN(c4ccc(OC[C@@H]5CO[C@@](Cn6cncn6)(c6ccc(Cl)cc6Cl)O5)cc4)CC3)nc2)c1=O (stereo partly specified)
(b) CCC(C)n1ncn(-c2ccc(N3CCN(c4ccc(OC[C@@H]5CO[C@@](Cn6cncn6)(c6ccc(Cl)cc6Cl)O5)nc4)CC3)c(F)c2)c1=O (stereo partly specified)
Problem: # returns the entry with the larger solubility thermodynamic; inputs a and b Answer = label.
Solution: b
(b: 0.255 µg/mL, a: 0.0539 µg/mL)

(A) CCC(C)n1ncn(-c2ccc(N3CCN(c4ccc(OC[C@@H]5CO[C@@](Cn6cnnn6)(c6ccc(Cl)cc6Cl)O5)cc4)CC3)c(F)c2)c1=O (stereo partly specified)
(B) CCC(C)n1ncn(-c2ccc(N3CCN(c4ccc(OC[C@@H]5CO[C@@](Cn6cnnn6)(c6ccc(Cl)cc6Cl)O5)cc4)CC3)cc2)c1=O (stereo partly specified)
Problem: Parameter check: reported solubility thermodynamic is higher for which label, A or B ? Write down the label of the entry you select.
Solution: B
(B: 0.321 µg/mL, A: 0.0528 µg/mL)

(A) CCC(C)n1ncn(-c2ccc(N3CCN(c4ccc(OC[C@@H]5CO[C@@](Cn6cncn6)(c6ccc(Cl)cc6Cl)O5)cn4)CC3)c(F)c2)c1=O (stereo partly specified)
(B) CCC(C)n1ncn(-c2ccc(N3CCN(c4ccc(OC[C@@H]5CO[C@@](Cn6cncn6)(c6ccc(Cl)cc6Cl)O5)nc4)CC3)cc2)c1=O (stereo partly specified)
Problem: Lab note: check whether A or B has the lower measured solubility thermodynamic. Refer to your chosen entry by its label in the reply.
Solution: B

* * *

- measurementProtocol: Thermodynamic solubility in 0.001N HCl by HPLC analysis
- Type: physicochemical
- conditionNotes: 0.001N HCl; read-out: Therm_solubility
readoutType: solubility thermodynamic (µg/mL)

(1) CCC(C)n1ncn(-c2ccc(N3CCN(c4ccc(OC[C@@H]5CO[C@@](Cn6cnnn6)(c6ccc(Cl)cc6Cl)O5)cn4)CC3)cc2)c1=O (stereo partly drawn)
(2) CCC(C)n1ncn(-c2ccc(N3CCN(c4ccc(OC[C@@H]5CO[C@@](Cn6ccnc6)(c6ccc(Cl)cc6Cl)O5)cn4)CC3)c(F)c2)c1=O (stereo partly drawn)
Problem: Param metric = solubility thermodynamic; output whichever of 1 , 2 has the minimum value. Indicate your choice by writing its label.
Solution: 1
(1: 0.951 µg/mL, 2: 125 µg/mL)
